- measurement.target: rat MCH-1 (Rattus norvegicus)
- Sequence (P97639 whole entry): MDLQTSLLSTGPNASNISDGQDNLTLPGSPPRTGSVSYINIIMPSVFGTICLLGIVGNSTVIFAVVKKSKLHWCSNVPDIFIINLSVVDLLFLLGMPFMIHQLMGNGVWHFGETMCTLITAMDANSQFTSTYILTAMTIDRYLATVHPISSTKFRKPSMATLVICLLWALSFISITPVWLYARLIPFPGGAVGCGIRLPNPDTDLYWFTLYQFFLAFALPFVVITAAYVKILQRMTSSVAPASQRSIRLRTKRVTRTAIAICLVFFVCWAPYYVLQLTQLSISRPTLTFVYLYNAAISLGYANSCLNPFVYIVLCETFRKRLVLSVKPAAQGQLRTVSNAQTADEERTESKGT
- experiment.description: Radioligand binding assay at cloned rat MCH1 receptor ([3H] Compound A)
- Set-up: host or cells: Peak rapid 293 (Peakr293) cells, transient calcium phosphate transfection, membranes
- condition.context: cloned rat MCH1 receptor, membranes from Peakr293 cells, 0.08 nM [3H] Compound A; read-out: Ki (nM) rMCH1
reported.property: Ki (nM)

>>> df
                                   compound  units_text  endpoint_result
0  CC(C)C(=O)Nc1cccc(C2CCN(CC[C@H](NC(=O)c3ccc(-c4ccccc4)cc3)c3ccccc3)CC2)c1 [Example 308]          nM              402
1  CC(C)C(=O)Nc1cccc(C2CCN(CCC(Oc3ccccc3)c3ccc(Cl)cc3)CC2)c1 (stereo not shown) [Example 180]          nM              9.7
2  Cc1csc2sc(CN3CCC(c4cccc(NC(=O)C(C)C)c4)CC3)c(C)c12 [Example 215]          nM              283
3  CC(C)C(=O)Nc1cccc(C2CCN(Cc3cccc(Oc4ccc(C(C)(C)C)cc4)c3)CC2)c1 [Example 213]          nM              519
4  CC(=O)c1cccc(OCCCCCN2CCC(c3cccc(NC(=O)C4CC4)c3)CC2)c1 [Example 382]          nM              319
5  CCn1c2ccccc2c2cc(CN3CCC(c4ccc(NC(=O)C(C)C)cc4)CC3)ccc21 [Example 98]          nM             37.9

1 = CC(C)C(=O)Nc1cccc(C2CCN(CCC(Oc3ccc(F)c(F)c3)c3ccc(F)cc3)CC2)c1 (stereo not shown) [Example 134]
2 = CC(C)C(=O)Nc1cccc(C2CCN(CCCOc3cccc(F)c3)CC2)c1 [Example 346]
3 = COc1ccc(OC(CCN2CCC(c3cccc(NC(=O)C(C)C)c3)CC2)c2ccc(Cl)cc2)cc1 (stereo not shown) [Example 130]
4 = CC(C)C(=O)Nc1cccc(C2CCN(CCCCCc3c(-c4ccccc4)n(C)c4ccccc34)CC2)c1 [Example 395]
Order field: Ki | Direction: descending (largest first) Submit the labels in the order that the ranking request calls for. 2, 1, 3, 4

I = CCOC(=O)c1cc(-c2ccc(Cl)cc2)oc1CN1CCC(c2cccc(NC(=O)C(C)C)c2)CC1 [Example 222]
II = CC(C)C(=O)Nc1cccc(C2CCN(Cc3cn(-c4ccccc4)c4ccccc34)CC2)c1 [Example 93]
Min Ki? I | II Return value: the label identifying the chosen record. II

1 = CC(C)C(=O)Nc1cccc(C2CCN(CCC(Oc3ccc(Br)cc3)c3ccc(Cl)cc3)CC2)c1 (stereo not shown) [Example 171]
2 = CC(C)C(=O)Nc1cccc(C2CCN(CCCOc3ccc(F)cc3)CC2)c1 [Example 347]
3 = CC(C)C(=O)Nc1cccc(C2CCN(Cc3ccc(-n4ccnc4)cc3)CC2)c1 [Example 256]
Rank the items in ascending order with respect to Ki. Submit the labels in the order that the ranking request calls for. 1, 2, 3
(1: 3.7 nM, 2: 54.8 nM, 3: 321 nM)

* * *

- measurement.target: rat MCH-1 (Rattus norvegicus)
- experiment.description: Radioligand binding assay at cloned rat MCH1 receptor ([3H] Compound A)
- Design: host or cells: Peak rapid 293 (Peakr293) cells, transient calcium phosphate transfection, membranes
- condition.context: cloned rat MCH1 receptor, membranes from Peakr293 cells, 0.08 nM [3H] Compound A; read-out: Ki (nM) rMCH1
reported.property: Ki (nM)

Observe how each entry below is paired with its result.
>>> df
                                   compound  endpoint_result
0  Cc1onc(-c2ccccc2Cl)c1C(=O)OC(CCCN1CCC(c2cccc(NC(=O)C(C)C)c2)CC1)c1ccccc1 (stereo not shown)              7.6
1  CC(=O)c1cccc(O[C@@H](CCN2CCC(c3cccc(N(C)C(=O)C(C)C)c3)CC2)c2ccccc2)c1              117
2  CC(C)C(=O)Nc1cccc(C2CCN(CCC(Oc3ccc(F)cc3F)c3ccc(F)cc3)CC2)c1 (stereo not shown)             19.2
3  CC(C)C(=O)Nc1cccc(C2CCN(Cc3ccc4nsnc4c3)CC2)c1              431
4  COc1ccc(-n2ccc3cc(CN4CCC(c5cccc(NC(=O)C(C)C)c5)CC4)ccc32)cc1             27.5

P = Cc1ccc(Oc2cccc(CN3CCC(c4cccc(NC(=O)C(C)C)c4)CC3)c2)cc1
Q = CC(C)C(=O)Nc1cccc(C2CCN(CC[C@H](NC(=O)c3cc(Cl)cc(Cl)c3)c3ccccc3)CC2)c1
Which numeric Ki is bigger, that of P or that of Q ? Return value: the label identifying the chosen record. Q
